System: MUTU-I
Assay: Induction of apoptosis in human MUTU-I cells assessed as decrease in cells at G2/M phase measured at 2.5 uM after 24 hrs by propidium iodide assay
Assay type: functional, cell-based
Calls of active or inactive are those of the source. No cut-off for these calls is given here.
Labels: active, inactive

[[record]]
compound = "CN(CCCN1c2ccccc2CCc2ccccc21)CCOCCN(C)CCCN1c2ccccc2CCc2ccccc21"
class_assignment = "active"

[[record]]
compound = "CN(CCCN1c2ccccc2CCc2ccccc21)CCOCCOCCN(C)CCCN1c2ccccc2CCc2ccccc21"
class_assignment = "active"

[[record]]
compound = "CN(CCCN1c2ccccc2CCc2ccccc21)CCOCCOCCOCCN(C)CCCN1c2ccccc2CCc2ccccc21"
class_assignment = "active"

[[record]]
compound = "CN(C)CCCN1c2ccccc2CCc2ccccc21 [IMIPRAMINE]"
class_assignment = "inactive"

[[record]]
compound = "CN(CCCN1c2ccccc2CCc2ccccc21)C(=O)COCCOCC(=O)N(C)CCCN1c2ccccc2CCc2ccccc21"
class_assignment = "inactive"

[[record]]
compound = "CNCCCN1c2ccccc2CCc2ccccc21 [DESIPRAMINE]"
class_assignment = "inactive"


###

The entries below come with measured IC50 values attached.
Experiment: Reduction in cell viability of human MUTU-I cells after 24 hrs by Alamar blue viability assay
Type: functional, cell-based
Quantity Kind: IC50

[[record]]
chemical_smiles = "CN(CCCN1c2ccccc2CCc2ccccc21)CCOCCOCCOCCN(C)CCCN1c2ccccc2CCc2ccccc21"
quantity_kind = "IC50"
measured_value = "1.15 µM"

[[record]]
chemical_smiles = "CNCCCN1c2ccccc2CCc2ccccc21"
quantity_kind = "IC50"
measured_value = "7.94 µM"

[[record]]
chemical_smiles = "CN(CCCN1c2ccccc2CCc2ccccc21)C(=O)COCCOCC(=O)N(C)CCCN1c2ccccc2CCc2ccccc21"
quantity_kind = "IC50"
measured_value = "5.75 µM"

[[record]]
chemical_smiles = "CN(CCCN1c2ccccc2CCc2ccccc21)CCOCCOCCN(C)CCCN1c2ccccc2CCc2ccccc21"
quantity_kind = "IC50"
measured_value = "0.62 µM"

[[record]]
chemical_smiles = "CN(CCCN1c2ccccc2CCc2ccccc21)CCOCCN(C)CCCN1c2ccccc2CCc2ccccc21"
quantity_kind = "IC50"
measured_value = "1.05 µM"

[[record]]
chemical_smiles = "CN(C)CCCN1c2ccccc2CCc2ccccc21"
quantity_kind = "IC50"
measured_value = "14.1 µM"


###

Target: UniProtKB P31645
Sequence (P31645 whole entry): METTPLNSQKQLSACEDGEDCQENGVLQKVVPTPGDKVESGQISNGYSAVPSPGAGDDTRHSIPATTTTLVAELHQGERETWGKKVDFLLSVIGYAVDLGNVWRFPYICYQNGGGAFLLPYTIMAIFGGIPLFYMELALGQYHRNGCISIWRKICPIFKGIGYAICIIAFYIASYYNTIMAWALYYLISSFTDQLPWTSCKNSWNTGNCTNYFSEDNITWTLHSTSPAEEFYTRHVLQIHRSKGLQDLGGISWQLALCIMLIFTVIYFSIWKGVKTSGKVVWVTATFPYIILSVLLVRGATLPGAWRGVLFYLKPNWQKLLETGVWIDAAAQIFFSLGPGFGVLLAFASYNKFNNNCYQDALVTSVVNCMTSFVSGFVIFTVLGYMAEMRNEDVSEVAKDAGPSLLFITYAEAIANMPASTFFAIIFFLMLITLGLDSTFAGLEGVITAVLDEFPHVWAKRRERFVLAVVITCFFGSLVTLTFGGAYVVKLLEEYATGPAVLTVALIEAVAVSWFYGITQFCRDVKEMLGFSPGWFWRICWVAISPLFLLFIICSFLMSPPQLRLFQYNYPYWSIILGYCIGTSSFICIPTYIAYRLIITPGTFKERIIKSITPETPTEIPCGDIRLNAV
Assay: Inhibition of human SERT expressed in HEK293-MSR cells by 5-HT uptake assay
// reported IC50 for each item listed
Quantity Kind: IC50 (µM)

[[record]]
chemical_smiles = "CN(CCCN1c2ccccc2CCc2ccccc21)CCOCCOCCOCCN(C)CCCN1c2ccccc2CCc2ccccc21"
measured_value = 5.5

[[record]]
chemical_smiles = "CN(CCCN1c2ccccc2CCc2ccccc21)CCOCCN(C)CCCN1c2ccccc2CCc2ccccc21"
measured_value = 6

[[record]]
chemical_smiles = "CN(CCCN1c2ccccc2CCc2ccccc21)C(=O)COCCOCC(=O)N(C)CCCN1c2ccccc2CCc2ccccc21"
measured_value = 46

[[record]]
chemical_smiles = "CN(CCCN1c2ccccc2CCc2ccccc21)CCOCCOCCN(C)CCCN1c2ccccc2CCc2ccccc21"
measured_value = 4.8


###

System: DG-75
Assay: Reduction in cell viability of human DG75 cells after 24 hrs by Alamar blue viability assay
Assay type: functional, cell-based
Conditions: DG-75, 24 h
// returns NO unless IC50 is strictly below 20 µM, in which case YES

[[record]]
compound = "CNCCCN1c2ccccc2CCc2ccccc21 [DESIPRAMINE]"
class_assignment = "NO"

[[record]]
compound = "CN(CCCN1c2ccccc2CCc2ccccc21)C(=O)COCCOCC(=O)N(C)CCCN1c2ccccc2CCc2ccccc21"
class_assignment = "YES"

[[record]]
compound = "CN(C)CCCN1c2ccccc2CCc2ccccc21 [IMIPRAMINE]"
class_assignment = "NO"

[[record]]
compound = "CN(CCCN1c2ccccc2CCc2ccccc21)CCOCCOCCOCCN(C)CCCN1c2ccccc2CCc2ccccc21"
class_assignment = "YES"

[[record]]
compound = "CN(CCCN1c2ccccc2CCc2ccccc21)CCOCCN(C)CCCN1c2ccccc2CCc2ccccc21"
class_assignment = "YES"

[[record]]
compound = "CN(CCCN1c2ccccc2CCc2ccccc21)CCOCCOCCN(C)CCCN1c2ccccc2CCc2ccccc21"
class_assignment = "YES"

